The origin of these recorded values is ChEMBL document CHEMBL1255365.

Reported MIC values for a set of compounds
tested on: Fusarium verticillioides; assay: Antifungal activity against Fusarium moniliforme clade 1 by microdilution method; type: functional
Write down the numeric answer in µg/mL and omit the unit.

These solved cases illustrate the format of a correct answer.
CC(=O)N1CCN(c2ccc(OCC3COC(Cn4ccnc4)(c4ccc(Cl)cc4Cl)O3)cc2)CC1 (stereo not drawn) [KETOCONAZOLE] | 2
C[C@@H](c1nc(-c2ccc(C#N)cc2)cs1)[C@](O)(Cn1cncn1)c1ccc(F)cc1F [RAVUCONAZOLE] | 1.45
CN(C/C=C/C#CC(C)(C)C)Cc1cccc2ccccc12 [TERBINAFINE] | 0.21

Input line: What value of MIC has been reported for the following compound? CCC(C)n1ncn(-c2ccc(N3CCN(c4ccc(OCC5COC(Cn6cncn6)(c6ccc(Cl)cc6Cl)O5)cc4)CC3)cc2)c1=O (stereo not drawn) [ITRACONAZOLE]
Output line: 12.7

Input line: CC[C@@H]([C@H](C)O)n1ncn(-c2ccc(N3CCN(c4ccc(OC[C@@H]5CO[C@@](Cn6cncn6)(c6ccc(F)cc6F)C5)cc4)CC3)cc2)c1=O [POSACONAZOLE] ?
Output line: 0.79

Input line: C[C@@H](c1ncncc1F)[C@](O)(Cn1cncn1)c1ccc(F)cc1F [VORICONAZOLE] ?
Output line: 2

Input line: C[C@@H](n1cnc2cc(Cl)ccc2c1=O)[C@](O)(Cn1cncn1)c1ccc(F)cc1F [ALBACONAZOLE] ?
Output line: 3.03

Input line: C[C@@H]1[C@H](O)[C@@H](C)/C=C/C=C/C=C/C=C/C=C/C=C/C=C/[C@H](O[C@@H]2O[C@H](C)[C@@H](O)[C@H](N)[C@@H]2O)C[C@@H]2O[C@](O)(C[C@@H](O)C[C@@H](O)[C@H](O)CC[C@@H](O)C[C@@H](O)CC(=O)O[C@H]1C)C[C@H](O)[C@H]2C(=O)O [AMPHOTERICIN B] ?
Output line: 2.41
